- test name: refractive index (Na D-line) (dimensionless); xn = mol fraction of the nth substance listed
- experimental conditions: 298.15 K; 101.32 kPa; Liquid; Standard Abbe refractometry; x1 = 0.0305
experimental endpoint: refractive index

molecule | refractive index
COCCOCCOCCOCCOC [2,5,8,11,14-pentaoxapentadecane] + CCO | 1.3674
COCCOC [1,2-dimethoxyethane] + CCO | 1.3601
COCCOCCOC [2,5,8-trioxanonane] + CCO | 1.3626
COCCOCCOCCOC [2,5,8,11-tetraoxadodecane] + CCO | 1.365

* * *

- test name: xn = mol fraction of the nth substance listed
- experimental conditions: 288.15 K; 101.32 kPa; Liquid; x1 = 0.0125
experimental endpoint: mass density (kg/m3)

molecule | mass density, kg/m3
COCCOCCOCCOC [2,5,8,11-tetraoxadodecane] + CCO | 801.7
COCCOCCOC [2,5,8-trioxanonane] + CCO | 798.7
COCCOC [1,2-dimethoxyethane] + CCO | 795.8
COCCOCCOCCOCCOC [2,5,8,11,14-pentaoxapentadecane] + CCO | 804.8

* * *

- test name: xn = mol fraction of the nth substance listed
- experimental conditions: 318.15 K; 101.32 kPa; Liquid; x1 = 0.2
experimental endpoint: mass density (kg/m3)

compound | unit of measurement | recorded measurement
COCCOCCOC [2,5,8-trioxanonane] + CCO | kg/m3 | 827.1
COCCOCCOCCOCCOC [2,5,8,11,14-pentaoxapentadecane] + CCO | kg/m3 | 879.9
COCCOCCOCCOC [2,5,8,11-tetraoxadodecane] + CCO | kg/m3 | 855.2
COCCOC [1,2-dimethoxyethane] + CCO | kg/m3 | 791.5

* * *

- test name: refractive index (Na D-line) (dimensionless); xn = mol fraction of the nth substance listed
- experimental conditions: 318.15 K; 101.32 kPa; Liquid; Standard Abbe refractometry; x1 = 0.3
experimental endpoint: refractive index

molecule | experimental endpoint | recorded measurement
COCCOC [1,2-dimethoxyethane] + CCO | refractive index | 1.3586
COCCOCCOC [2,5,8-trioxanonane] + CCO | refractive index | 1.3754
COCCOCCOCCOCCOC [2,5,8,11,14-pentaoxapentadecane] + CCO | refractive index | 1.3973
COCCOCCOCCOC [2,5,8,11-tetraoxadodecane] + CCO | refractive index | 1.3877

* * *

- test name: refractive index (Na D-line) (dimensionless); xn = mol fraction of the nth substance listed
- experimental conditions: 288.15 K; 101.32 kPa; Liquid; Standard Abbe refractometry; x1 = 0.35
experimental endpoint: refractive index

compound | refractive index
COCCOCCOC [2,5,8-trioxanonane] + CCO | 1.3907
COCCOCCOCCOC [2,5,8,11-tetraoxadodecane] + CCO | 1.4032
COCCOCCOCCOCCOC [2,5,8,11,14-pentaoxapentadecane] + CCO | 1.4129
COCCOC [1,2-dimethoxyethane] + CCO | 1.3732

* * *

- test name: xn = mol fraction of the nth substance listed
- experimental conditions: 288.15 K; 101.32 kPa; Liquid; x1 = 0.0165
experimental endpoint: mass density (kg/m3)

compound | unit of measurement | mass density
COCCOC [1,2-dimethoxyethane] + CCO | kg/m3 | 796.4
COCCOCCOCCOCCOC [2,5,8,11,14-pentaoxapentadecane] + CCO | kg/m3 | 808.2
COCCOCCOCCOC [2,5,8,11-tetraoxadodecane] + CCO | kg/m3 | 804.2
COCCOCCOC [2,5,8-trioxanonane] + CCO | kg/m3 | 800.3
